# Tested on: HCC-2998 colon
# Experiment: NCI-60 one-dose screen, 48 h (100 = growth as untreated, 0 = no growth, -100 = all killed)
# Test parameters: 10 µM unless noted
Compounds without any hit were thinned out: in the full panel of roughly 83,000, 20% have a hit.
Quantity: growth (%)
Numbers only, in %.

Check out these entries, answers already filled in.
CN1CCN(Cc2ccc(NC(=O)c3cncc(C#Cc4cnc5ccc(OC6CCOCC6)nn45)c3)cc2C(F)(F)F)CC1: -68.5
O=C1/C(=C/c2cc(F)cc(F)c2)Cc2cc3c(cc21)OCO3: 65
CSc1ccc(C(=NNS(=O)(=O)c2ccc(C)cc2)c2ccc(Cl)cc2)cc1: 103
NCCNC(=O)c1cccc(COc2ccccc2NC(=O)c2cc(Br)c(Br)[nH]2)c1: 99.8

[ask] Item under review: Nn1c(=O)n(-c2cccc(C(F)(F)F)c2)c(=O)c2cc(-c3ccc(F)cc3F)ccc21 . Reported growth?
[reply] 12.5

* * *

# Tested on: HT29 colon
# Experiment: NCI-60 one-dose screen, 48 h
# Test parameters: 10 µM unless noted
This is part of a sample that, as a whole, favours compounds with a hit. Of some 83,000 tested, about 20% had one in any assay. Activity calls are given as the source filed them. Rule for the calls: active = growth percent below 10; inactive = the rest.
Log the outcome using a class from active, inactive

See these solved cases before continuing.
O=C1C(N2CCN(c3ccccc3)CC2)=C(Cl)C(=O)c2ncccc21: inactive
Cc1ccc(C)c(NC2=C(Cl)C(=O)c3nc(C)ccc3C2=O)c1: inactive
COC(=O)c1cccc(NC2=C(Cl)C(=O)c3nc(C)ccc3C2=O)c1: inactive
O=C(COc1ccc(/C=C2\C(=O)Nc3ccc(F)cc32)cc1)Nc1ccccc1: inactive
CCOC(=O)c1cccc(NC2=C(Cl)C(=O)c3nc(C)ccc3C2=O)c1: inactive

[ask] Query: recorded result category for Cc1ccc(NC2=C(Cl)C(=O)c3nc(C)ccc3C2=O)c(C)c1 in this test
[reply] inactive

[ask] Query: recorded result category for CC(C)NC(=O)c1cc(-c2ccc(NC(=O)Nc3ccc(F)cc3)cc2)nc2cccnc12 in this test
[reply] inactive

[ask] Query: recorded result category for N#C/C(=N\Nc1ccc(F)cc1)C(=O)Nc1cc(-c2ccccc2)nn1-c1ccccc1 in this test
[reply] active

[ask] Query: recorded result category for COc1ccccc1/C=C1\Oc2ccc(O)c(O)c2C1=O in this test
[reply] inactive

[ask] Query: recorded result category for O=C(Nc1cccc(Cl)c1)Nc1nc2cc([N+](=O)[O-])ccc2o1 in this test
[reply] inactive

* * *

# Tested on: A549/ATCC NSCLC
# Experiment: NCI-60 one-dose screen, 48 h (100 = growth as untreated, 0 = no growth, -100 = all killed)
# Test parameters: 10 µM unless noted
The panel holds about 83,000 compounds, 20% with a hit somewhere; the sample as a whole holds those more often. Calls of active or inactive are those of the source. How the source made its calls: active means growth percent below 10; inactive means the rest.
Could you please report measured growth for the items listed next?

Check out these entries, answers already filled in.
COc1ccc2c(c1)c(-c1nnc(N)nc1-c1c[nH]c3ccc(F)cc13)cn2C: 50.7% (inactive)
O=C(CCCCCCN1CC(=O)N2[C@@H](c3ccccc3Br)c3[nH]c4ccccc4c3C[C@H]2C1=O)NO: 88.4% (inactive)
CC(=O)c1cc(C(=O)N2c3ccccc3Sc3ccccc32)n2c1ccc1ccccc12: 59% (inactive)
C#C[C@]1(O)CC[C@H]2[C@@H]3CC=C4c5sc(Nc6cccc(F)c6)nc5CC[C@]4(C)[C@H]3CC[C@@]21C: 32.6% (inactive)
Cc1ccc2c(n1)C(=O)C(Cl)=C(Nc1cccc(C)c1C)C2=O: 41.5% (inactive)

# map each compound to its growth
1. COC(=O)c1ccc(NC2=C(Cl)C(=O)c3nc(C)ccc3C2=O)cc1
2. COc1ccc2c(c1)C=CC1(O2)Oc2ccc(OC)cc2C=C1C (centres undefined)
3. O=C(CCCCCC/C=C\c1csc(Br)n1)NO
4. O=C(Nc1ccc(N=Cc2c(O)[nH]c3ccccc23)cc1)Nc1ccc(S(=O)(=O)Nc2ncccn2)cc1

[reply]
["94.1% (inactive)", "18.5% (inactive)", "91.9% (inactive)", "101% (inactive)"]

Measured values drawn from PubChem BioAssay (NCI) for this set.
